Cited source: patent US11814435B2

# System tested: Cyno BCMA
# Measurement notes: Kinetics and affinity of cyno BCMA/human IgG interactions by SPR (Bio-Rad Proteon XPR36)
# Format: binding, cynomolgus
# Experimental setup: 37° C.
Class (required): determined from kd Cyno; valid ranges are LOW (below 0.0006 s⁻¹), MEDIUM (0.0006 s⁻¹ to below 0.01 s⁻¹), HIGH (0.01 s⁻¹ or more)

A02_Rd4_0.6 nM_C18: anti-BCMA antibody (antibody, V domains shown) VH: EVQLLESGGGLVQPGGSLRLSCAASGFTFSSYAMNWVRQAPGKGLEWVSAVLDSGGSTYYADSVKGRFTISRDNSKNTLYLQMNSLRAEDTAVYYCARYWPMSLWGQGTLVTVSS VL: EIVLTQSPGTLSLSPGERATLSCRASQSVSELYLAWYQQKPGQAPRLLMYDASIRATGIPDRFSGSGSGTDFTLTISRLEPEDFAVYYCQQYFGWPLTFGQGTKVEIK ... MEDIUM
C01_Rd4_6 nM_C24: anti-BCMA antibody (antibody, V domains shown) VH: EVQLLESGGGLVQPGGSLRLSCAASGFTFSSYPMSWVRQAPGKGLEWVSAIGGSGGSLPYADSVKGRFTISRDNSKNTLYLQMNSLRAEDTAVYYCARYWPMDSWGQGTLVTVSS VL: EIVLTQSPGTLSLSPGERATLSCRASQSVSPEYLAWYQQKPGQAPRLLIYDASSRAPGIPDRFSGSGSGTDFTLTISRLEPEDFAVYYCQQYSVWPLTFGQGTKVEIK ... MEDIUM
P5A2_VHVL: anti-BCMA antibody (antibody, V domains shown) VH: EVQLLESGGGLVQPGGSLRLSCAASGFTFSSYAMNWVRQAPGKGLEWVSAISDSGGSTYYADSVKGRFTISRDNSKNTLYLQMNSLRAEDTAVYYCARYWPMDIWGQGTLVTVSS VL: EIVLTQSPGTLSLSPGERATLSCRASQSVSSSYLAWYQQKPGQAPRLLMYDASIRATGIPDRFSGSGSGTDFTLTISRLEPEDFAVYYCQQYGSWPLTFGQGTKVEIK ... HIGH
COMBO_Rd4_6 nM_C11: anti-BCMA antibody (antibody, V domains shown) VH: EVQLLESGGGLVQPGGSLRLSCAASGFTFSSYPMSWVRQAPGKGLEWVSAIGGSGGSLGYADSVKGRFTISRDNSKNTLYLQMNSLRAEDTAVYYCARYWPMDSWGQGTLVTVSS VL: EIVLTQSPGTLSLSPGERATLSCRASQSVSPLYLAWYQQKPGQAPRLLMYDASIRATGIPDRFSGSGSGTDFTLTISRLEPEDFAVYYCQQYKAWPLTFGQGTKVEIK ... LOW
P5C1_VHVL: anti-BCMA antibody (antibody, V domains shown) VH: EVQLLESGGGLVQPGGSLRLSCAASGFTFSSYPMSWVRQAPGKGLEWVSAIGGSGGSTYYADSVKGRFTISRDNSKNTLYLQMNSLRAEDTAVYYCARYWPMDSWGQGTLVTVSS VL: EIVLTQSPGTLSLSPGERATLSCRASQSVSSTYLAWYQQKPGQAPRLLIYDASSRAPGIPDRFSGSGSGTDFTLTISRLEPEDFAVYYCQQYSTSPLTFGQGTKVEIK ... HIGH
C01_Rd4_0.6 nM_C03: anti-BCMA antibody (antibody, V domains shown) VH: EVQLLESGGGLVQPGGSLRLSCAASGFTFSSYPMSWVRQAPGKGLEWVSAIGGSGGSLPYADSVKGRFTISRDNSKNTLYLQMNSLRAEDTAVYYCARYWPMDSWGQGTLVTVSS VL: EIVLTQSPGTLSLSPGERATLSCRASCDVSSTYLAWYQQKPGQAPRLLIYDASSRAPGIPDRFSGSGSGTDFTLTISRLEPEDFAVYYCQQYMRSPLTFGQGTKVEIK ... HIGH
C01_Rd4_0.6 nM_C06: anti-BCMA antibody (antibody, V domains shown) VH: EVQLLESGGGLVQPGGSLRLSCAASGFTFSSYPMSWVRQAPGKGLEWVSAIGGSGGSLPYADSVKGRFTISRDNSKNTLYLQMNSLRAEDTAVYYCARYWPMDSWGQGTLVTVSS VL: EIVLTQSPGTLSLSPGERATLSCRASEAVPSTYLAWYQQKPGQAPRLLIYDASSRAPGIPDRFSGSGSGTDFTLTISRLEPEDFAVYYCQQYSAFPLTFGQGTKVEIK ... HIGH
A02_Rd4_6 nM_C25: anti-BCMA antibody (antibody, V domains shown) VH: EVQLLESGGGLVQPGGSLRLSCAASGFTFSSYAMNWVRQAPGKGLEWVSAISDSGGSRWYADSVKGRFTISRDNSKNTLYLQMNSLRAEDTAVYYCARYWPMTPWGQGTLVTVSS VL: EIVLTQSPGTLSLSPGERATLSCRASQSVSSSYLAWYQQKPGQAPRLLMYDASIRATGIPDRFSGSGSGTDFTLTISRLEPEDFAVYYCQQYLDWPLTFGQGTKVEIK ... LOW
COMBO_Rd4_0.6 nM_C05: anti-BCMA antibody (antibody, V domains shown) VH: EVQLLESGGGLVQPGGSLRLSCAASGFTFSSYAMNWVRQAPGKGLEWVSAIGGSGGSTYYADSVKGRFTISRDNSKNTLYLQMNSLRAEDTAVYYCARYWPMSLWGQGTLVTVSS VL: EIVLTQSPGTLSLSPGERATLSCRASQSVSSTYLAWYQQKPGQAPRLLMYDASIRATGIPDRFSGSGSGTDFTLTISRLEPEDFAVYYCQQYMSWPLTFGQGTKVEIK ... MEDIUM
